# assay-overview: Phase 2 open-label study (Part A): plasma pharmacokinetics
# Assay type: in vivo, human
# stated-conditions: human, plasma; Day 7; 30 mg oral solution once daily with food; N=13; read-out: T1/2, median (converted)
measured-parameter: half-life (h)
// return numeric value only (unit: h, not printed)

Looking up C[C@@]1(O)CC[C@H]2[C@H](CC[C@@H]3[C@@H]2CC[C@]2(C)[C@@H](C(=O)Cn4cc(C#N)cn4)CC[C@@H]32)C1 , I see its half-life listed as 10.3

====

# assay-overview: Phase 1 four-period crossover study of relative bioavailability and food effect, Compound 1 Capsules vs Oral Solution, plasma PK
# Format: in vivo, human
# stated-conditions: human, plasma, po, 30 mg, single 30-mg oral dose, Capsules, fasted, healthy subjects, plasma; read-out: AUC0-t, arithmetic mean
measured-parameter: AUC(0-t) (ng·h/mL)
// return numeric value only (unit: ng·h/mL, not printed)

Looking up C[C@@]1(O)CC[C@H]2[C@H](CC[C@@H]3[C@@H]2CC[C@]2(C)[C@@H](C(=O)Cn4cc(C#N)cn4)CC[C@@H]32)C1 , I see its AUC(0-t) listed as 544
